# Binding Signal (fold over 6E7 parental antibody) per record follows
Molecular target: T1, human TREM2 (human) (UniProt Q9NZC2)
T1 sequence (looked up): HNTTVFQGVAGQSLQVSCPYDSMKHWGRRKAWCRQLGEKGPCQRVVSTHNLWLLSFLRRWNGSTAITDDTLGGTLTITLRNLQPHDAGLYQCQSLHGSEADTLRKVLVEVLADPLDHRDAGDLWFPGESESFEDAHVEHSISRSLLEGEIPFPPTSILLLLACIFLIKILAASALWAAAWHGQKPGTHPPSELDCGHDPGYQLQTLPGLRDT
Test: 2nd screen, 2 nM Ab
The reply should be a number in fold, with the unit left off.

Data request: Identify Binding Signal (fold over 6E7 parental antibody) associated with the binder 6E7 variant V60 (antibody, V domains shown) VH: EVQLVQSGAEVKKPGESLKISCKGSGYHFTSYWIAWVRQMPGKGLEWMGIIYPGDSDVRYSPSFQGQVTISADKSISTAYLQWSSLKASDTAMYFCARQRTFYYDSSDYSDYWGQGTLVTVSS VL: DIQMTQSPSSVSASVGDRVTITCRASQGISSWLAWYQQKPGKAPKLLIYAASSLQRGVPSRFSGSGSGTDFTLTISSLQPEDFATYFCGQADSFPRTFGQGTKLEIK
Data returned: 3.35

Data request: Identify Binding Signal (fold over 6E7 parental antibody) associated with the binder 6E7 variant V29 (antibody, V domains shown) VH: EVQLVQSGAEVKKPGESLKISCKGSGYSFKSYWIAWVRQMPGKGLEWMGIIYPGDSDTRYSPSFQGQVTISADKSISTAYLQWSSLKASDTAMYFCARQRTFYYDSSDYFDYWGQGTLVTVSS VL: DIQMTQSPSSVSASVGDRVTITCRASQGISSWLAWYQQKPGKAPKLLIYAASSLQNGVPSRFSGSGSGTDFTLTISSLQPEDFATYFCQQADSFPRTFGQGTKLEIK
Data returned: 0.84
